IC50 tested on PIM-1 kinase (Homo sapiens): recorded values
Sequence (P11309 whole entry): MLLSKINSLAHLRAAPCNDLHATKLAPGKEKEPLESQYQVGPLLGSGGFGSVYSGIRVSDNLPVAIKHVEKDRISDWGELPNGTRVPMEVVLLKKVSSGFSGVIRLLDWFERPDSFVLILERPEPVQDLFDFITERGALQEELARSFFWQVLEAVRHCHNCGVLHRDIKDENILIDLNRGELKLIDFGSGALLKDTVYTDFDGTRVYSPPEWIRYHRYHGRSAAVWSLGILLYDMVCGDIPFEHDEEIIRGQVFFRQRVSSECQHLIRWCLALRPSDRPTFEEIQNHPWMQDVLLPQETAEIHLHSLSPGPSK
Numbers only here, please. The scale is µM.

`COc1ccc2nc(N3CCCCC3)c(-c3cc(-c4cccc(O)c4)nc(S)c3C#N)cc2c1` tested on PIM-1 kinase (Homo sapiens) gave IC50: 1.1

---

# reported Caco-2 SI; entries follow
test system: Colon cancer cells (Caco-2); experiment: MTT anticancer activity, Caco-2; type: cell-based, human; details: selectivity index, Wi-38 versus Caco-2
// return just the number, without any unit appended

Field: example entries. Status: answers known.
| Compound | Caco-2 SI |
| --- | --- |
| N#Cc1c(-c2cc3ccccc3nc2N2CCOCC2)cc(-c2cccc(O)c2)nc1OCC(=O)Nc1ccccc1 [11a] | 0.911 |
| N#Cc1c(-c2cc3cc(Cl)ccc3nc2N2CCOCC2)cc(-c2cccc(O)c2)nc1OCC(=O)Nc1ccccc1 [11d] | 2.054 |
| COc1ccc2nc(N3CCCCC3)c(-c3cc(-c4cccc(O)c4)[nH]c(=O)c3C#N)cc2c1 | 0.587 |
| N#Cc1c(-c2cc3cc(Cl)ccc3nc2N2CCOCC2)cc(-c2cccc(O)c2)nc1S | 2.500 |
| N#Cc1c(-c2cc3cc(Cl)ccc3nc2N2CCCCC2)cc(-c2cccc(O)c2)[nH]c1=O | 0.534 |
| COc1ccc2nc(N3CCOCC3)c(-c3cc(-c4cccc(O)c4)[nH]c(=O)c3C#N)cc2c1 | 19.861 |
| N#Cc1c(-c2cc3cc(Cl)ccc3nc2N2CCOCC2)cc(-c2cccc(O)c2)[nH]c1=O | 3.775 |

Caco-2 SI recorded for this compound, COc1ccc2nc(N3CCOCC3)c(-c3cc(-c4cccc(O)c4)nc(OCC(=O)Nc4ccc(Cl)cc4)c3C#N)cc2c1 [11h] , is 2.002

Where do these numbers come from? They come from paper PMC9848351.
